- TEST SUMMARY: Tanguay_ZF_120hpf_PE_legacy: (Legacy) Oregon State University Tanguay Lab 120 Hour Post-fertilization zebrafish Assay for Pericardial Edema (AID 2283640)
Records with an inconclusive call do not appear. Calls of active or inactive are those of the source. The calls were made as follows: active = hit-call score of the fitted dose curve at least 0.9, where 1 is the maximum; inconclusive = response in the unintended direction; inactive = score below 0.9.
Returns: one label drawn from 1.0 for active, 0.0 for inactive

Please review the following examples before continuing.
O=C(O)C1(C(=O)Nc2ccc(Cl)cc2Cl)CC1 = 1.0
Oc1ccc(C(c2ccc(O)cc2)C(Cl)(Cl)Cl)cc1 = 0.0
CCN(Cc1c(F)cccc1Cl)c1c([N+](=O)[O-])cc(C(F)(F)F)cc1[N+](=O)[O-] = 0.0
c1ccc(Nc2ccccc2)cc1 = 1.0

INPUT: Hi, do you know how CN(C)C(=O)Nc1ccc(Cl)c(Cl)c1 came out in this test?
OUTPUT: 0.0

INPUT: Hi, do you know how CCOC(=O)COc1cc(-n2ncc(C(F)(F)F)c(C)c2=O)c(F)cc1Cl came out in this test?
OUTPUT: 0.0

INPUT: Hi, do you know how CCCCOC(=O)C(C)Oc1ccc(Oc2ccc(C(F)(F)F)cn2)cc1 (stereo not drawn) came out in this test?
OUTPUT: 0.0

INPUT: Hi, do you know how CSC(=O)c1cccc2nnsc12 came out in this test?
OUTPUT: 0.0

INPUT: Hi, do you know how CC(C)CCCCCCc1ccc(O)cc1 came out in this test?
OUTPUT: 0.0

INPUT: Hi, do you know how Cc1nn(C)c(Oc2ccccc2)c1C=NOCc1ccc(C(=O)OC(C)(C)C)cc1 came out in this test?
OUTPUT: 0.0

INPUT: Hi, do you know how C=CCOC(Cn1ccnc1)c1ccc(Cl)cc1Cl (stereo not drawn) came out in this test?
OUTPUT: 0.0

INPUT: Hi, do you know how COCCO came out in this test?
OUTPUT: 0.0

INPUT: Hi, do you know how S=C(S)NCCNC(=S)S.[Mn+2].[S-]C([S-])=NCCN=C([S-])[S-].[Zn+2] came out in this test?
OUTPUT: 0.0
